- Assay Method Text: Influence of ambient temperature on the water solubility of trehalose (Experiment 1)
- Format: physicochemical
- Settings: water, 5 °C; d.s.b., saturated solution; read-out: Amount of trehalose (g) dissolving in 100 g water
Endpoint Name: solubility thermodynamic (mg/mL)
Reply with just the number (in mg/mL).

Query: Report measured solubility thermodynamic; entry is `OC[C@H]1O[C@H](O[C@H]2O[C@H](CO)[C@@H](O)[C@H](O)[C@H]2O)[C@H](O)[C@@H](O)[C@@H]1O`
Response: 496
